Measured growth values are reported for all entries that follow.
Test system: SNB-75 CNS
Assay: NCI-60 one-dose screen, 48 h (100 = growth as untreated, 0 = no growth, -100 = all killed)
Details: 10 µM
This is part of a sample that, as a whole, favours compounds with a hit. Of some 83,000 tested, about 20% had one in any assay.
readout_name: growth (%)

>>> reported("Cc1cccc(Cl)c1NC(=O)c1ccc2nc(NC(=O)NC3CCN(C)CC3)sc2c1")
6.73
>>> reported("O=C(Nc1cccc(-n2cc(-c3ccncc3)c(-c3cc(O)cc(Cl)c3)n2)c1)c1cc(C(F)(F)F)cc(C(F)(F)F)c1")
52.7
>>> reported("Nc1nc(N)c(NC(=O)CNc2ccc(C(=O)O)cc2)c(N)n1")
76
>>> reported("C/C(=N\\Nc1nc2ccccc2s1)c1ccncn1")
61.8
>>> reported("CCN(CC)CCOc1nc2cc(OC)c(OC)cc2c2c1-c1ccc(OC)cc1C2=O")
56.5
>>> reported("Cc1ccc(NC(=O)Nc2c(Cl)cccc2Cl)cn1")
92.1
>>> reported("COc1ccc(NC(=O)Cc2nc3nc4sc(C)c(C)c4c(=O)n3[nH]2)cc1")
101
>>> reported("C(CCCC1=NCCO1)CCCC1=NCCO1")
77.5
>>> reported("COc1ccc(-c2cc(/C=C3\\C(=O)Nc4ccc(OC)cc43)[nH]n2)cc1")
-18.7
